compounds and their reported pIC50
target: HCN2 (Homo sapiens, UniProt Q9UL51); assay: HCN2 assay using the Sophion Qube (Example 50B); assay type: cell-based; details: Sophion Qube protocol (SQ)
Sequence (Q9UL51 whole entry): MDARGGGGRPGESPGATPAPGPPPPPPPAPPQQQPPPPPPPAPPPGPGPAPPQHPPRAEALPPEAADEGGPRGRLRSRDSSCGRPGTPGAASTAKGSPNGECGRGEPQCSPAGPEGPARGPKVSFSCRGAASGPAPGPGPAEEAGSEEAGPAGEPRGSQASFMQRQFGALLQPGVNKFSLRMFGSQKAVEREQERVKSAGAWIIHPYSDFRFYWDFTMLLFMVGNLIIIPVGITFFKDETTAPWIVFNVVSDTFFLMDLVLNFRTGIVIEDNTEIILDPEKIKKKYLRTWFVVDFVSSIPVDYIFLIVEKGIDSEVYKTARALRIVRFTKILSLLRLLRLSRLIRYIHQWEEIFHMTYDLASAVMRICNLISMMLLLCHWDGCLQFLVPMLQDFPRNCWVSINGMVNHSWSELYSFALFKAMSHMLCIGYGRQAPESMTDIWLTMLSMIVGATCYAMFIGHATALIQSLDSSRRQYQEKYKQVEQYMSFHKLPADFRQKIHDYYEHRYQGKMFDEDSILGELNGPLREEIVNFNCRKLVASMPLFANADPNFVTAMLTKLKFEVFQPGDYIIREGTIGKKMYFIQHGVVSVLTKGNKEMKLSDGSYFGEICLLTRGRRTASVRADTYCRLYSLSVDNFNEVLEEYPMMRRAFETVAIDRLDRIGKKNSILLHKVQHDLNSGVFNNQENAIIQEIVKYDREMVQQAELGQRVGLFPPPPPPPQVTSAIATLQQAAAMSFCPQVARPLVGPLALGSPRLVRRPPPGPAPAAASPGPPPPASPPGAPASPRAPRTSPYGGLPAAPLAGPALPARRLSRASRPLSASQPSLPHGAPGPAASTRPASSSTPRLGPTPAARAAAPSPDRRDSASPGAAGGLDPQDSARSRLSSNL
pIC50: −log10 of the molar value. Counter-ions that a name gives are not always drawn.
VALUE_TYPE: pIC50

Cc1ccc(C#N)nc1C[C@H](N)c1ncccc1-n1ncc2cc(Br)ccc21 [Example 36, hydrochloride]; 6.11
N#Cc1ccc(F)c(C[C@H](N)c2ncccc2-n2ncc3cc(Cl)ccc32)n1 [Example 45, hydrochloride]; 6.22
Cc1ccc(F)c(C[C@H](N)c2ncccc2-n2ncc3cc(F)ccc32)n1 [Example 34]; 5.35
Cc1ccc(C#N)nc1C[C@H](N)c1ncccc1-n1ncc2cc(Cl)ccc21 [Example 35]; 6.34
Cc1cccnc1C[C@H](N)c1ncccc1-n1ncc2cc(Br)ccc21 [Example 30, hydrochloride]; 6.05
CS(=O)(=O)c1ccc(F)c(C[C@H](N)c2ncccc2-n2ncc3cc(Br)ccc32)n1 [Example 48, hydrochloride]; 5.68
Cc1ccc(C#N)nc1C[C@H](N)c1ncccc1-n1ncc2cc(F)ccc21 [Example 47]; 6.20
COc1ccc2c(cnn2-c2cccnc2[C@@H](N)Cc2ncccc2F)c1 [Example 32, hydrochloride]; 4.54

----------
Biological target: HCN4 (Homo sapiens)
Sequence (Q9Y3Q4 1-1203): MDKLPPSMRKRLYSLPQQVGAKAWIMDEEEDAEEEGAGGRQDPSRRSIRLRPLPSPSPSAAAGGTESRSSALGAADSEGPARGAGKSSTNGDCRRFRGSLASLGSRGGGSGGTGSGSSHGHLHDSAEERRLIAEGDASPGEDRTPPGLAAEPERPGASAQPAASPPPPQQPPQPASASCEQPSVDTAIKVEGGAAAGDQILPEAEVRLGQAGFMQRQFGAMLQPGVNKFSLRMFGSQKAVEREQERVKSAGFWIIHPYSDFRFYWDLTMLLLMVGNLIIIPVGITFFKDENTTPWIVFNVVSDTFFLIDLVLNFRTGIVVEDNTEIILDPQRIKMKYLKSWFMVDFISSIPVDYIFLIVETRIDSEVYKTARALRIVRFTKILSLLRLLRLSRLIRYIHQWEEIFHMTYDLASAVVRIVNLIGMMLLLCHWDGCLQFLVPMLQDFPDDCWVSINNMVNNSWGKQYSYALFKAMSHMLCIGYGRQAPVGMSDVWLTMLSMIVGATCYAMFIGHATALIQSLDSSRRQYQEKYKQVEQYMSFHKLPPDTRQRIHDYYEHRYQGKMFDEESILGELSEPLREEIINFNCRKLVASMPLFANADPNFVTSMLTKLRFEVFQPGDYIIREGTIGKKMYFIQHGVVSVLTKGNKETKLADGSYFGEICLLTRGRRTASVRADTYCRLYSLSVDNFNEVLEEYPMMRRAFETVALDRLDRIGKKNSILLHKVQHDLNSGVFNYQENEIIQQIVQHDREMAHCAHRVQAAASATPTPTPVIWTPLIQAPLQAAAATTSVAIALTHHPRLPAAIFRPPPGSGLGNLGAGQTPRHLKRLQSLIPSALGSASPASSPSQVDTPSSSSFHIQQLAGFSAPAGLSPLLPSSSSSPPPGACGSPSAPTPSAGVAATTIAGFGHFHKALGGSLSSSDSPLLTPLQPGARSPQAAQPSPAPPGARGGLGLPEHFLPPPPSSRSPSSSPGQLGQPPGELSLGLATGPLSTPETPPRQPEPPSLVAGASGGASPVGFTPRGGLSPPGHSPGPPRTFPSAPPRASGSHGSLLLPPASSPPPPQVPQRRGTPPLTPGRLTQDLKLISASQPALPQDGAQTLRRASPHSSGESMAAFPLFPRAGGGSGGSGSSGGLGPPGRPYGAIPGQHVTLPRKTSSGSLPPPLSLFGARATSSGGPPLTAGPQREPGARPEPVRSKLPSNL
Assay: HCN4 assay using the Sophion Qube (Example 50B)
Assay type: cell-based
Conditions: Sophion Qube protocol (SQ)
pIC50: −log10 of the molar value. Counter-ions that a name gives are not always drawn.
Tag: TRUE if measured pIC50 is not below 5, FALSE if it is.

CS(=O)(=O)c1ccc(F)c(C[C@H](N)c2ncccc2-n2ncc3cc(Cl)ccc32)n1 [Example 41, hydrochloride]; FALSE
Cc1ccc2c(cnn2-c2cccnc2[C@@H](N)Cc2nc(C#N)ccc2F)c1 [Example 39, hydrochloride]; TRUE
Cc1ccc(C#N)nc1C[C@H](N)c1ncccc1-n1ncc2cc(Cl)ccc21; TRUE
N#Cc1ccc(F)c(C[C@H](N)c2ncccc2-n2ncc3cc(Cl)ccc32)n1 [Example 45, hydrochloride]; TRUE
N#Cc1ccc(F)c(C[C@H](N)c2ncccc2-n2ncc3cc(F)ccc32)n1; FALSE
Cc1cccnc1C[C@H](N)c1ncccc1-n1ncc2cc(Br)ccc21 [Example 30, hydrochloride]; FALSE
Cc1ccc(C#N)nc1C[C@H](N)c1ncccc1-n1ncc2cc(Br)ccc21 [Example 36, hydrochloride]; TRUE

----------
assay: Evaluation of CNS penetration: plasma, brain and auditory nerve levels (Example 55); format: in vivo; settings: auditory nerve / plasma, other: injection; guinea pig, 30 min after injection, preliminary, n=2; read-out: ratio of total concentrations auditory nerve:plasma
VALUE_TYPE: Kp at 30 min

COc1cc2c(cc1OC)CC(=O)N(CCCN(C)C[C@H]1Cc3cc(OC)c(OC)cc31)CC2; 0.57

----------
IC50 for assorted compounds
target: HCN4 (Homo sapiens, UniProt Q9Y3Q4); assay: HCN4 assay using PatchXpress 7000A (Example 50A); assay type: cell-based; settings: PatchXpress protocol (PX)
Structures can show the parent of a compound that is named as a salt.
VALUE_TYPE: IC50

N[C@@H](Cc1ccccn1)c1ccccc1-n1ncc2cnccc21 [Example 7, hydrochloride]; > 30 µM
CCc1cccc(C[C@H](N)c2ncccc2-n2ncc3ccccc32)n1; 14.8 µM
N[C@@H](Cc1ccccn1)c1ncccc1-n1ncc2ccccc21 [Example 4, hydrochloride]; > 30 µM
Cc1cc(F)cnc1C[C@H](N)c1ncccc1-n1ncc2ccccc21 [Example 26, hydrochloride]; 0.5 µM
Cc1cccnc1C[C@H](N)c1ncccc1-n1ncc2ccccc21 [Example 16, hydrochloride]; 2.1 µM
Cc1cccc(C[C@H](N)c2ncccc2-n2ncc3ccccc32)n1 [Example 5, hydrochloride]; > 30 µM
CCc1ccc(F)c(C[C@H](N)c2ncccc2-n2ncc3ccccc32)n1 [Example 25, hydrochloride]; 1.6 µM
NC(=O)c1cccc(C[C@H](N)c2ncccc2-n2ncc3ccccc32)n1; > 30 µM

----------
target: HCN4 (Homo sapiens, UniProt Q9Y3Q4); assay: HCN4 assay using PatchXpress 7000A (Example 50A); format: cell-based; details: PatchXpress protocol (PX)
pIC50: −log10 of the molar value. Where a name gives a salt, the structure may show the parent alone.
Classify by measured pIC50: fulfilled if it is equal to or exceeds 5, not fulfilled if it is smaller.

N[C@@H](Cc1cccc(F)n1)c1ncccc1-n1ncc2ccccc21 [Example 17, hydrochloride]; not fulfilled
N#Cc1cccc(C[C@H](N)c2ncccc2-n2ncc3ccccc32)n1; not fulfilled
N[C@@H](Cc1ncccc1F)c1ncccc1-n1ncc2cc(F)ccc21 [Example 28, hydrochloride]; not fulfilled
CS(=O)(=O)c1ccc(F)c(C[C@H](N)c2ncccc2-n2ncc3ccccc32)n1 [Example 21, formate]; not fulfilled
N[C@@H](Cc1nc(CCO)ccc1F)c1ncccc1-n1ncc2ccccc21 [Example 24, hydrochloride]; not fulfilled
N#Cc1ccc2c(cnn2-c2ccccc2[C@@H](N)Cc2ccccn2)c1; not fulfilled
CN(C)C(=O)c1cccc(C[C@H](N)c2ncccc2-n2ncc3ccccc32)n1; not fulfilled
N[C@@H](Cc1ccccn1)c1ccccc1-n1ncc2cc(Br)ccc21 [Example 1, hydrochloride]; fulfilled
N[C@@H](Cc1ncccc1F)c1ncccc1-n1ncc2ccccc21 [Example 10, hydrochloride]; fulfilled
Cc1ccc(C#N)nc1C[C@H](N)c1ncccc1-n1ncc2ccccc21 [Example 2, hydrochloride]; fulfilled

----------
target: HCN4 (Homo sapiens, UniProt Q9Y3Q4); assay: HCN4 assay using PatchXpress 7000A (Example 50A); assay type: cell-based; settings: PatchXpress protocol (PX)
pIC50: −log10 of the molar value. Structures can show the parent of a compound that is named as a salt.
Below: a set of entries, each annotated with reported pIC50.
VALUE_TYPE: pIC50

Cc1nc(C[C@H](N)c2ncccc2-n2ncc3ccccc32)ccc1F [Example 20, hydrochloride]; 4.89
N#Cc1ccc(F)c(C[C@H](N)c2ncccc2-n2ncc3ccccc32)n1; 5.12
N#Cc1nc(C[C@H](N)c2ncccc2-n2ncc3ccccc32)ccc1F; 4.87
N[C@@H](Cc1ccc(F)cn1)c1ncccc1-n1ncc2ccccc21; 4.93

Recorded values, source patent US20240174639A1.
